Source of measurements: ChEMBL document CHEMBL5104202

Test system: Acinetobacter baumannii
Experiment: Antibacterial activity against efflux pump lacking/recombinant OM pore producing Acinetobacter baumannii incubated for 24 hrs by twofold serial dilution method
Format: functional
Record form. Attribute: MIC. Fill in for each entry.
Field format: number, assumed µM, no unit text.

Quick check: MIC of CC(=O)NC[C@H]1CN(c2ccc(N3CCOCC3)c(F)c2)C(=O)O1 ? 25

Quick check: MIC of O=C1O[C@@H](CO)CN1c1ccc(-c2ccc(C(F)(F)F)cc2)c(F)c1 ? 6.25

Quick check: MIC of O=C1O[C@@H](CO)CN1c1ccc(-c2ccc(OC(F)(F)F)cc2)c(F)c1 ? 25

Quick check: MIC of Nc1ncc(-c2ccc(N3C[C@H](CO)OC3=O)cc2F)cn1 ? 50

Quick check: MIC of NCc1ccc(-c2ccc(N3C[C@H](CO)OC3=O)cc2F)cc1O ? 25

Quick check: MIC of O=C(O)c1ccc(-c2ccc(N3C[C@H](CO)OC3=O)cc2F)cc1 ? 50

Quick check: MIC of O=C1O[C@@H](CO)CN1c1ccc(-c2ccncc2)c(F)c1 ? 6.25

Quick check: MIC of C[n+]1ccc(-c2ccc(-c3ccc(N4C[C@H](CO)OC4=O)cc3F)cc2)cc1 ? 50

Quick check: MIC of O=C1O[C@@H](CO)CN1c1ccc(-c2ccc(CO)cc2)c(F)c1 ? 12.5

Quick check: MIC of O=C1O[C@@H](CO)CN1c1ccc(-c2cccnc2)c(F)c1 ? 12.5

Quick check: MIC of C[n+]1cccc(-c2ccc(-c3ccc(N4C[C@H](CO)OC4=O)cc3F)cc2)c1 ? 25

Quick check: MIC of NCc1ccc(-c2ccc(N3C[C@H](CO)OC3=O)cc2F)cc1 ? 25
